tested on: MOLT-4 leukemia; assay: NCI-60 one-dose screen, 48 h (100 = growth as untreated, 0 = no growth, -100 = all killed); conditions: 10 µM unless noted
About 83,000 compounds went through this panel and 20% of them were active in at least one assay; those are over-represented in the sample as a whole. Activity calls are given as the source filed them. The calls were made as follows: active = growth percent below 10; inactive = the rest.
Attribute Measured: growth

Entry Smiles: C=C(C)[C@@H]1CC[C@]2(C(=O)O)CC[C@]3(C)[C@H](CC[C@@H]4[C@@]5(C)C/C(=C/c6ccco6)C(=O)C(C)(C)[C@@H]5CC[C@]43C)[C@@H]12
growth: -8.01% [100 µM] (active)
--
Entry Smiles: CCCCOC(=O)c1c(C)[nH]c(/C=C2\N=C(c3ccc[nH]3)C=C2OC)c1C
growth: 8.13% (active)
--
Entry Smiles: CCN(CC)c1ccc(/C=C/c2ccc3cc(C)ccc3[n+]2CC)cc1
growth: -15.3% (active)
--
Entry Smiles: C#CCNC(=O)CC[C@]1(C)[C@H]2CC[C@@H]3[C@@H]([C@@](C)(O)CCC=C(C)C)CC[C@@]3(C)[C@]2(C)CC[C@H]1C(=C)C
growth: -29% [100 µM] (active)

We now examine a further compound.
Data request: Query growth for Cc1ccc(N)c(O)c1
Data returned: 106% (inactive)

###

test system: IGROV1 ovarian; experiment: NCI-60 one-dose screen, 48 h; details: 10 µM unless noted
The panel holds about 83,000 compounds, 20% with a hit somewhere; the sample as a whole holds those more often. Calls of active or inactive are those of the source. How the source made its calls: active means growth percent below 10; inactive means the rest.
Reply using exactly one outcome from 1 (yes) (active), 0 (no) (inactive)

Worked examples, 4 molecules total:
Molecule: COc1cc2c(c(Br)c1N)-c1cc(Br)c(N)cc1C2=O
Category Label: 0 (no)
//
Molecule: O=C(NCCO)c1cccnc1
Category Label: 0 (no)
//
Molecule: C=C(C)[C@@H]1CC[C@]2(C)[C@H](CC[C@@H]3[C@@H]([C@@](C)(O)CCC=C(C)C)CC[C@]32C)[C@@]1(C)CCC(=O)O
Category Label: 1 (yes)
//
Molecule: C=C(C)[C@@H]1CC[C@]2(C(N)=O)CC[C@]3(C)[C@H](CC[C@@H]4[C@@]5(C)C/C(=C/c6cccnc6)C(=O)C(C)(C)[C@@H]5CC[C@]43C)[C@@H]12
Category Label: 0 (no)

Data request: Write down the call the test reported for this molecule. Item: CC[C@@H]1NC(=O)[C@@H]2CCCCN2C(=O)[C@@H]2CCCN2C(=O)[C@@H](NC(=O)[C@H](Cc2cc(F)cc(F)c2)NC(=O)Nc2ccc(C3CC3)cc2F)[C@H](C)OC(=O)[C@@H]2C[C@@H](C)CN2C1=O
Data returned: 0 (no)

Data request: Write down the call the test reported for this molecule. Item: COc1ccc(CC(C#N)c2ccc(Cl)cc2)cc1 (stereo not drawn)
Data returned: 0 (no)

Data request: Write down the call the test reported for this molecule. Item: O=C(CCN1CCCCC1)c1ccc2ccccc2c1
Data returned: 0 (no)

Data request: Write down the call the test reported for this molecule. Item: CCCCCCCCCCCCCCCCCCNC(=S)N/N=C/c1ccc(OC)c(OC)c1
Data returned: 0 (no)

###

tested on: ACHN renal; test: NCI-60 one-dose screen, 48 h; conditions: 10 µM unless noted
This is part of a sample that, as a whole, favours compounds with a hit. Of some 83,000 tested, about 20% had one in any assay. Calls of active or inactive are those of the source. Rule for the calls: active = growth percent below 10; inactive = the rest.
Reply using exactly one outcome from Y = active, N = inactive

Data request: Write down the call the test reported for this compound. Item: COc1ccc2nc3cc(Cl)ccc3c(Nc3ccc(O)c(CN4CCCC4)c3)c2c1
Data returned: Y
